These measurements were taken from patent US20230212131A1.

- Test system: collagen 1 (COL1)
- EXPERIMENT SUMMARY: WI-38 collagen 1 inhibition assay
- Type: cell-based, human
- CONDITION DESCRIPTION: Cellular EC50, WI-38 cells; values are classes of LogEC50
MEASUREMENT TYPE: COL1 Efficacy (LogEC50)

INSERT INTO measurements (chem_smiles, readout_value) VALUES
  ('Cn1cc(-c2csc(NC(=O)c3ccc(N4CCOCC4)cc3)n2)cn1', '++ (++: −5 to −6)'),
  ('Cc1ccc(C(=O)Nc2nc(-c3cccnc3)cs2)cn1', '+ (+: >−5)'),
  ('COc1cnc(C(=O)Nc2nc(-c3ccccc3Cl)cs2)cn1', '++ (++: −5 to −6)'),
  ('Cc1ncccc1-c1csc(NC(=O)c2cnc(N3CCOCC3)cn2)n1', '+ (+: >−5)');

Alright, here's another molecule for you.
Incoming: Can you look up the measured COL1 Efficacy (LogEC50) of COc1ccc(C(=O)Nc2nc(-c3cncnc3C)cs2)cc1 for me?
Outgoing: + (+: >−5)

====

- Test system: collagen 1 (COL1)
- EXPERIMENT SUMMARY: WI-38 collagen 1 inhibition assay
- Assay type: cell-based, human
- CONDITION DESCRIPTION: Cellular EC50, WI-38 cells; values are classes of LogEC50
MEASUREMENT TYPE: COL1 Efficacy (LogEC50)

Examples from the recorded data:
INSERT INTO assay_data (molecule, measurement_type, readout_value) VALUES
  ('COc1cccc(-c2csc(NC(=O)c3ccc(N4CCOCC4)cc3)n2)c1 [compound 357]', 'COL1 Efficacy (LogEC50)', '+ (+: >−5)'),
  ('C[C@H]1COCCN1c1ccc(C(=O)Nc2nc(-c3ccccc3Cl)cs2)nc1 [compound 464]', 'COL1 Efficacy (LogEC50)', '+++ (+++: <−6)'),
  ('Cc1ccc(C(=O)Nc2nc(-c3cnccc3C)cs2)cn1 [compound 348]', 'COL1 Efficacy (LogEC50)', '+ (+: >−5)'),
  ('CC(=O)N1CCN(c2ccc(C(=O)Nc3nc(-c4ccccc4Cl)cs3)nc2)CC1 [compound 442]', 'COL1 Efficacy (LogEC50)', '+++ (+++: <−6)'),
  ('COc1ccc(C(=O)Nc2nc(-c3cnccc3OC)cs2)cc1 [Compound 326]', 'COL1 Efficacy (LogEC50)', '++ (++: −5 to −6)');

// input: 4 molecules below; output: COL1 Efficacy (LogEC50) for each
1. Cc1ncccc1-c1csc(NC(=O)c2ccc(N3CCOCC3)nc2)n1 [compound 375]
2. CC(=O)N1CCC(Oc2ccc(C(=O)Nc3nc(-c4ccccc4Cl)cs3)nc2)CC1 [compound 440]
3. O=C(Nc1nc(-c2ccccc2Cl)cs1)N1CCC(N2CCOCC2)CC1 [compound 360]
4. CC(=O)N1CCN(c2ccc(C(=O)Nc3nc(-c4ccccc4Cl)cs3)c(C)c2)CC1 [compound 473]

Outgoing:
+ (+: >−5)
+++ (+++: <−6)
+ (+: >−5)
+++ (+++: <−6)

====

- System: collagen 1 (COL1)
- EXPERIMENT SUMMARY: WI-38 collagen 1 inhibition assay
- Type: cell-based, human
- CONDITION DESCRIPTION: Cellular EC50, WI-38 cells; values are classes of LogEC50
MEASUREMENT TYPE: COL1 Efficacy (LogEC50)

Examples from the recorded data:
INSERT INTO assay_data (compound, system_name, readout_value) VALUES
  ('Cc1ccc(C(=O)Nc2nc(-c3ccccc3Cl)cs2)cn1 [compound 318]', 'collagen 1 (COL1)', '+++ (+++: <−6)'),
  ('O=C(Nc1nc(-c2ccccc2Cl)cs1)c1ccc(N2CCOCC2)cc1Cl [Compound 409]', 'collagen 1 (COL1)', '++ (++: −5 to −6)'),
  ('O=C(Nc1nc(-c2ccccc2Cl)co1)c1ccc(N2CCOCC2)cc1 [Compound 368]', 'collagen 1 (COL1)', '++ (++: −5 to −6)'),
  ('O=C(Nc1nc(-c2ccccc2Cl)cs1)c1ccc(N2CCCC(O)C2)cn1 (centres unmarked) [compound 477]', 'collagen 1 (COL1)', '+++ (+++: <−6)'),
  ('O=C(Nc1nc(N2CCCC2=O)cs1)c1ccc(N2CCOCC2)cn1 [Compound 395]', 'collagen 1 (COL1)', '+ (+: >−5)'),
  ('CS(=O)(=O)N1CCN(C(=O)[C@H]2C[C@H](C(=O)Nc3nc(-c4ccccc4Cl)cs3)C2)CC1 [Compound 430]', 'collagen 1 (COL1)', '+ (+: >−5)'),
  ('CN1CCC(C(=O)N2CCN(c3ccc(C(=O)Nc4nc(-c5ccccc5Cl)cs4)nc3)CC2)C1 (centres unmarked) [Compound 482]', 'collagen 1 (COL1)', '+++ (+++: <−6)'),
  ('CN1CCC(C(=O)Nc2nc(-c3ccccc3Cl)cs2)CC1 [compound 324]', 'collagen 1 (COL1)', '++ (++: −5 to −6)');

// input: 2 compounds below; output: COL1 Efficacy (LogEC50) for each
1. CC(C)=CC(=O)Nc1nc(-c2cc(Cl)sc2Cl)cs1 [compound 314]
2. COCc1ccccc1-c1csc(NC(=O)c2ccc(N3CCN(S(C)(=O)=O)CC3)cn2)n1 [Compound 447]

Outgoing:
1. ++ (++: −5 to −6)
2. +++ (+++: <−6)

// input: 4 compounds below; output: COL1 Efficacy (LogEC50) for each
1. O=C(Nc1nc(-c2ccccc2Cl)cs1)[C@H]1C[C@H](N2CCOCC2)C1 [compound 422]
2. O=C(Nc1nc(-c2ccccc2Cl)cs1)c1ccc(N2CCOCC2)cc1F [compound 408]
3. COc1ncc(C(=O)Nc2nc(-c3cccnc3C)cs2)cn1 [compound 355]
4. CC(=O)NCc1ccccc1-c1csc(NC(=O)c2ccc(N3CCN(S(C)(=O)=O)CC3)cn2)n1 [compound 480]

Outgoing:
++ (++: −5 to −6)
− (−: inactive)
− (−: inactive)
− (−: inactive)
